# TARGET: hM3 mAChR (Homo sapiens, UniProt P20309)
# Sequence (P20309 whole entry): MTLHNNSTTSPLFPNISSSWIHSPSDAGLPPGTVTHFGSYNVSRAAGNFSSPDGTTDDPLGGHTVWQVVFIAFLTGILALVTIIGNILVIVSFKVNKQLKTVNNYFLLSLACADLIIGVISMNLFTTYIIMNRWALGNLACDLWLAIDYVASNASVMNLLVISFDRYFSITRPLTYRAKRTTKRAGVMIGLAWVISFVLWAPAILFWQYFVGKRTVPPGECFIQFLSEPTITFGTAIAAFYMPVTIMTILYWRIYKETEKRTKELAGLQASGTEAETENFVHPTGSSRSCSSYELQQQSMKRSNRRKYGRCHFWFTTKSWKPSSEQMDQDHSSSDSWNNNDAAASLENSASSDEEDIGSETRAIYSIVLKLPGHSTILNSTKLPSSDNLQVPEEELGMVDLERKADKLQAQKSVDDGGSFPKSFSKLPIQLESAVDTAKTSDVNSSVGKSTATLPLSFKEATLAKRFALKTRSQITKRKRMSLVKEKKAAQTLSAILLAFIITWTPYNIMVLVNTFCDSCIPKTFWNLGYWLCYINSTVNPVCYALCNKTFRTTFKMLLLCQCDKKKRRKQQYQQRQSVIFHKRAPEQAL
# RUN_DESCRIPTION: Inhibition of agonist-stimulated calcium mobilization
# Type: cell-based
PROPERTY: Ki (pM)
Numeric only. Scale: pM

Complete the entry with Ki for CN(CCN1CCC(OC(=O)Nc2ccccc2-c2ccccc2)CC1)C(=O)c1ccc(CN2CCC(C(N)=O)CC2)cc1 [Revefenacin]
95.5

---

# TARGET: cloned human 5‐HT4(C) receptors (Homo sapiens, UniProt Q13639)
# Sequence (Q13639 1-380 isoform Q13639-4): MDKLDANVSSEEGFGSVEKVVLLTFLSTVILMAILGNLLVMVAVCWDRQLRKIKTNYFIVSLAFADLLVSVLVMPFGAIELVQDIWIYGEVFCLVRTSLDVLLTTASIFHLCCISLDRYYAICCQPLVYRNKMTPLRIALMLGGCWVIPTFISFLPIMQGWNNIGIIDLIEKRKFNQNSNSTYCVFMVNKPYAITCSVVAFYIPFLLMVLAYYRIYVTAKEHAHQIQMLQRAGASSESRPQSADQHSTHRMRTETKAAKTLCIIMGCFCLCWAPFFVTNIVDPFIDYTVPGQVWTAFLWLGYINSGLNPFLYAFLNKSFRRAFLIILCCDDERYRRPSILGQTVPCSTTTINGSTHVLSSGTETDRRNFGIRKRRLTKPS
# RUN_DESCRIPTION: 5-HT4 agonist assay
PROPERTY: EC50

Complete the entry with EC50 for CN(CCN1CCC(OC(=O)Nc2ccccc2-c2ccccc2)CC1)C(=O)c1ccc(CN2CCC(C(N)=O)CC2)cc1
257 nM

---

# TARGET: hM1 mAChR (Homo sapiens)
# Sequence (P11229 1-460): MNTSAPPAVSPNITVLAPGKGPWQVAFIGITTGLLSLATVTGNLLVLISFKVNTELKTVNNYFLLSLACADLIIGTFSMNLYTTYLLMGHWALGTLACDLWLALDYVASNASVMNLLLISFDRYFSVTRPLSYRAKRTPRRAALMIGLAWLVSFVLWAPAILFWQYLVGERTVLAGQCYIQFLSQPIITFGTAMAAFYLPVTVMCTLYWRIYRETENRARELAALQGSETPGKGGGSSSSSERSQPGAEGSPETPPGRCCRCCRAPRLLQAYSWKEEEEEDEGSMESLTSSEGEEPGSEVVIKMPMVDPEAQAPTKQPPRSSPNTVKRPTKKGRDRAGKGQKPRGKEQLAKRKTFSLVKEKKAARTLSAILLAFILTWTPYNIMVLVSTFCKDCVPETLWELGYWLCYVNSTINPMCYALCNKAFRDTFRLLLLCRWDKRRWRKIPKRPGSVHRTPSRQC
PROPERTY: pKd
Please keep in mind that pKd is minus log10 of the molar concentration; only the number is needed.

Complete the entry with pKd for CN(CCN1CCC(OC(=O)Nc2ccccc2-c2ccccc2)CC1)C(=O)c1ccc(CN2CCC(C(N)=O)CC2)cc1
9.00

---

# TARGET: hM5 mAChR (Homo sapiens)
# Sequence (P08912 whole entry): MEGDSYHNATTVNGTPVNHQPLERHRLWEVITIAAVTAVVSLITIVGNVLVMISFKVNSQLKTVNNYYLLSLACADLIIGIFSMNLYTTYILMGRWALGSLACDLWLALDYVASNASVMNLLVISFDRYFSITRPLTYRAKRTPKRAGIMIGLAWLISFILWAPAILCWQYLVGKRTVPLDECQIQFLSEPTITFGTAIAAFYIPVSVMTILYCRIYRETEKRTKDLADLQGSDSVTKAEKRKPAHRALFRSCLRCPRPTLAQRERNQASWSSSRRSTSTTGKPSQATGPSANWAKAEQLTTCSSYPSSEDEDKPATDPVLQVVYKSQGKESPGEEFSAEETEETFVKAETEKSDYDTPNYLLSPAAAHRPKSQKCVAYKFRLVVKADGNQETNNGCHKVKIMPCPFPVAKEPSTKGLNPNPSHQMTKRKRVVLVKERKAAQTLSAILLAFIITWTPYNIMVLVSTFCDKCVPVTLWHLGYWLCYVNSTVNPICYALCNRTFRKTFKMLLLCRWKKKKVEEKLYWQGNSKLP
# RUN_DESCRIPTION: Competition radioligand binding, [^3H]NMS
# PARTICULARS: hM5 KI, [^3H]NMS competition; from IC50 by Cheng and Prusoff
PROPERTY: Ki

Complete the entry with Ki for CN(CCN1CCC(OC(=O)Nc2ccccc2-c2ccccc2)CC1)C(=O)c1ccc(CN2CCC(C(N)=O)CC2)cc1
6.7 nM

---

Exercise: for every item that follows, state its recorded Ki.
# TARGET: UniProt:P08173
# RUN_DESCRIPTION: Inhibition of agonist-stimulated calcium mobilization
# Format: cell-based
Numeric only. Scale: pM

Complete the entry with Ki for C[N+]1(C)[C@@H]2C[C@@H](OC(=O)C(O)(c3cccs3)c3cccs3)C[C@H]1[C@@H]1O[C@@H]12 [Tiotropium, reference compound]
61.7

Complete the entry with Ki for CN(CCN1CCC(OC(=O)Nc2ccccc2-c2ccccc2)CC1)C(=O)c1ccc(CN2CCC(C(N)=O)CC2)cc1 [Revefenacin]
11.2

---

# TARGET: UniProtKB P08912
# RUN_DESCRIPTION: Competition radioligand binding, [^3H]NMS
# PARTICULARS: hM5 pKI, [^3H]NMS competition, CHO-K1 membranes, 37°C; mean ± SD
PROPERTY: pKi
Please keep in mind that pKi is minus log10 of the molar concentration; only the number is needed.

Complete the entry with pKi for CN(CCN1CCC(OC(=O)Nc2ccccc2-c2ccccc2)CC1)C(=O)c1ccc(CN2CCC(C(N)=O)CC2)cc1 [Revefenacin]
8.20

---

# TARGET: hM4 mAChR (Homo sapiens, UniProt P08173)
# Sequence (P08173 whole entry): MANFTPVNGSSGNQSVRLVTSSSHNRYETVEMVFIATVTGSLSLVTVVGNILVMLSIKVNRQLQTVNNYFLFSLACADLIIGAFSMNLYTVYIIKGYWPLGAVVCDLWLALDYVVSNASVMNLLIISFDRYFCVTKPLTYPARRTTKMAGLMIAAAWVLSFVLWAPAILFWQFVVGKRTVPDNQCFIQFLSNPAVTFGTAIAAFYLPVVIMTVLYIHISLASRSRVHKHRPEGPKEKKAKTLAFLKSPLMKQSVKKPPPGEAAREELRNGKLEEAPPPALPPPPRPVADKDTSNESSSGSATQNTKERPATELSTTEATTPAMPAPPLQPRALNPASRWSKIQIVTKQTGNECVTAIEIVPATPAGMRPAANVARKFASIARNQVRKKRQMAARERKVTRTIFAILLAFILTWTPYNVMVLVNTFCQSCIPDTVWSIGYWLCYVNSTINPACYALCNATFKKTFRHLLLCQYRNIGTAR
# RUN_DESCRIPTION: Competition radioligand binding, [^3H]NMS
PROPERTY: pKi
Please keep in mind that pKi is minus log10 of the molar concentration; only the number is needed.

Retrieve pKi on hM4 mAChR (Homo sapiens, UniProt P08173); query C[N+]1(C)[C@@H]2C[C@@H](OC(=O)C(O)(c3cccs3)c3cccs3)C[C@H]1[C@@H]1O[C@@H]12 [Tiotropium, reference compound]
10.69

---

# TARGET: hM3 mAChR (Homo sapiens)
# RUN_DESCRIPTION: Saturation radioligand binding
PROPERTY: pKd
Please keep in mind that pKd is minus log10 of the molar concentration; only the number is needed.

Complete the entry with pKd for CN(CCN1CCC(OC(=O)Nc2ccccc2-c2ccccc2)CC1)C(=O)c1ccc(CN2CCC(C(N)=O)CC2)cc1
9.41

---

# TARGET: hM4 mAChR (Homo sapiens, UniProt P08173)
# RUN_DESCRIPTION: Competition radioligand binding, [^3H]NMS
# PARTICULARS: hM4 pKI, [^3H]NMS competition, CHO-K1 membranes, 37°C; mean ± SD
PROPERTY: Ki (nM)
Numeric only. Scale: nM

Complete the entry with Ki for CN(CCN1CCC(OC(=O)Nc2ccccc2-c2ccccc2)CC1)C(=O)c1ccc(CN2CCC(C(N)=O)CC2)cc1
0.55

---

PROPERTY: pKd
Please keep in mind that pKd is minus log10 of the molar concentration; only the number is needed.

Retrieve pKd on hM5 mAChR (Homo sapiens); query CN(CCN1CCC(OC(=O)Nc2ccccc2-c2ccccc2)CC1)C(=O)c1ccc(CN2CCC(C(N)=O)CC2)cc1 [Revefenacin]
8.38

---

# TARGET: cM5 mAChR (Pan troglodytes)
# Sequence (Q5IS53 whole entry): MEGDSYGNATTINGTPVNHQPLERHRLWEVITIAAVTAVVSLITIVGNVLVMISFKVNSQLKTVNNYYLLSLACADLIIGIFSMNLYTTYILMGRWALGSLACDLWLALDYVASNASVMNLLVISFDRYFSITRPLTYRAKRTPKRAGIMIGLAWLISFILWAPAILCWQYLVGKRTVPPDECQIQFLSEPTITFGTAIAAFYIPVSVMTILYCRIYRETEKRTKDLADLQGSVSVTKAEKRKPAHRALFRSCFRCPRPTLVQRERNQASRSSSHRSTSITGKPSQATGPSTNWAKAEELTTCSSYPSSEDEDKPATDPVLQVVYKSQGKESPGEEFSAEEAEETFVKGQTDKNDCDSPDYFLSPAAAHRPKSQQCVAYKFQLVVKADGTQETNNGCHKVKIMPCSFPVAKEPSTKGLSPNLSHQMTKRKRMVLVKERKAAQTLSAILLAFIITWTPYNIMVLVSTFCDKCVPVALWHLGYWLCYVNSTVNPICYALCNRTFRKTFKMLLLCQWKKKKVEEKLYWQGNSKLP
# RUN_DESCRIPTION: Inhibition of agonist-stimulated calcium mobilization
# Format: cell-based, chimpanzee
PROPERTY: pKi
Please keep in mind that pKi is minus log10 of the molar concentration; only the number is needed.

Complete the entry with pKi for CN(CCN1CCC(OC(=O)Nc2ccccc2-c2ccccc2)CC1)C(=O)c1ccc(CN2CCC(C(N)=O)CC2)cc1 [Revefenacin]
9.44

Complete the entry with pKi for C[N+]1(C)[C@@H]2C[C@@H](OC(=O)C(O)(c3cccs3)c3cccs3)C[C@H]1[C@@H]1O[C@@H]12 [Tiotropium, reference compound]
9.98

Complete the entry with pKi for CC(C)[N+]1(C)[C@@H]2CC[C@H]1C[C@@H](OC(=O)C(CO)c1ccccc1)C2 (stereo partly drawn) [Ipratropium, reference compound]
9.72

---

# TARGET: hM3 mAChR (Homo sapiens, UniProt P20309)
# RUN_DESCRIPTION: Association and dissociation binding kinetics
PROPERTY: Kd (pM)
Numeric only. Scale: pM

Complete the entry with Kd for CN(CCN1CCC(OC(=O)Nc2ccccc2-c2ccccc2)CC1)C(=O)c1ccc(CN2CCC(C(N)=O)CC2)cc1
93.3
